Conditions: bacteroides fragilis, 12 h, 2 µM

COMPOUND	Bacterial Biotransformation
CCOC(=O)[C@H](CCc1ccccc1)N[C@@H](C)C(=O)N1CCC[C@H]1C(=O)O.O=C(O)/C=C\C(=O)O [ENALAPRIL MALEATE]	Compound NOT metabolized
O=C1C(CC[S+]([O-])c2ccccc2)C(=O)N(c2ccccc2)N1c1ccccc1 (centres undefined)	Compound metabolized
CN(C)CCc1c[nH]c2ccc(CS(=O)(=O)N3CCCC3)cc12	Compound NOT metabolized
CC(=O)CCCCn1c(=O)c2c(ncn2C)n(C)c1=O	Compound NOT metabolized
Cc1nc2n(c(=O)c1CCN1CCC(c3noc4cc(F)ccc34)CC1)CCCC2O (centres undefined)	Compound metabolized
CC[C@H](C)C(=O)O[C@H]1C[C@@H](C)C=C2C=C[C@H](C)[C@H](CC[C@@H]3C[C@@H](O)CC(=O)O3)[C@H]21	Compound metabolized
CCCCCNC(=N)N/N=C/c1c[nH]c2ccc(OC)cc12.O=C(O)/C=C\C(=O)O [TEGASEROD MALEATE]	Compound NOT metabolized
CSc1ccc2c(c1)C(N1CCN(C)CC1)Cc1ccccc1S2.O=C(O)/C=C\C(=O)O (centres undefined)	Compound NOT metabolized
C#C[C@]1(O)CC[C@H]2[C@@H]3CCC4=Cc5oncc5C[C@]4(C)[C@H]3CC[C@@]21C	Compound metabolized

###

Settings: enterocloster bolteae, 12 h, 2 µM

COMPOUND	Bacterial Biotransformation
C#C[C@]1(O)CC[C@H]2[C@@H]3CCC4=Cc5oncc5C[C@]4(C)[C@H]3CC[C@@]21C	Compound metabolized
CCS(=O)(=O)CCn1c([N+](=O)[O-])cnc1C	Compound metabolized
COc1ccc(Cc2nccc3cc(OC)c(OC)cc23)cc1OC	Compound NOT metabolized
CN1CC(=O)N2[C@H](c3ccc4c(c3)OCO4)c3[nH]c4ccccc4c3C[C@@H]2C1=O	Compound NOT metabolized
CN(CCOc1ccc(CC2SC(=O)NC2=O)cc1)c1ccccn1.O=C(O)/C=C\C(=O)O (stereo not given) [ROSIGLITAZONE MALEATE]	Compound NOT metabolized
COC(=O)C(c1ccccc1)C1CCCCN1 (stereo not given) [METHYLPHENIDATE]	Compound NOT metabolized
COc1cc2nc(N3CCN(C(=O)c4ccco4)CC3)nc(N)c2cc1OC	Compound NOT metabolized
CC(=O)OCC(=O)[C@@]12N=C(C)O[C@@H]1C[C@H]1[C@@H]3CCC4=CC(=O)C=C[C@]4(C)[C@H]3[C@@H](O)C[C@@]12C	Compound metabolized
CC[C@H](C)C(=O)O[C@H]1CCC=C2C=C[C@H](C)[C@H](CC[C@@H]3C[C@@H](O)CC(=O)O3)[C@H]21	Compound metabolized
CC(N)C12CC3CC(CC(C3)C1)C2 (stereo not given)	Compound NOT metabolized
CC(C(=O)O)c1ccc2c(c1)Cc1cccnc1O2 (stereo not given)	Compound metabolized
O=C1C(CC[S+]([O-])c2ccccc2)C(=O)N(c2ccccc2)N1c1ccccc1 (stereo not given)	Compound NOT metabolized
Nc1nc2ccc(OC(F)(F)F)cc2s1	Compound NOT metabolized
CN1CCN(C2=Nc3cc(Cl)ccc3Nc3ccccc32)CC1	Compound NOT metabolized
COc1ccc2[nH]c([S+]([O-])Cc3ncc(C)c(OC)c3C)nc2c1 (stereo not given)	Compound metabolized
CCN(CC)C(C)CN1c2ccccc2Sc2ccccc21 (stereo not given)	Compound NOT metabolized
Cc1ccc(S(=O)(=O)NC(=O)NN2CCCCCC2)cc1 [TOLAZAMIDE]	Compound NOT metabolized
CCCCC(=O)N(Cc1ccc(-c2ccccc2-c2nnn[nH]2)cc1)[C@H](C(=O)O)C(C)C	Compound NOT metabolized
Nc1ccc(/N=N/c2ccccc2)c(N)n1	Compound metabolized
COc1c(C)c2c(c(O)c1C/C=C(\C)CCC(=O)OCCN1CCOCC1)C(=O)OC2 [MYCOPHENOLATE MOFETIL]	Compound metabolized

###

Test: The drug is tested on Bacteroides cellulosilyticus strain: DSM14838 for biotransformation. The drug concentrations were measured before and after a 12-h incubation by liquid-chromatography-coupled mass spectrometry (LC–MS)
Conditions: 2 µM

COMPOUND	Bacterial Biotransformation
CCCC(C)(COC(N)=O)COC(=O)NC(C)C (centres undefined)	Compound metabolized
CCOC(=O)[C@H](CCc1ccccc1)N[C@@H](C)C(=O)N1[C@H](C(=O)O)C[C@H]2CCCC[C@@H]21	Compound metabolized
CCCCC(=O)O[C@]1(C(=O)CO)[C@@H](C)C[C@H]2[C@@H]3CCC4=CC(=O)C=C[C@]4(C)[C@@]3(F)[C@@H](O)C[C@@]21C [BETAMETHASONE VALERATE]	Compound NOT metabolized
COc1ccc2c(c1)c(CC(=O)O)c(C)n2C(=O)c1ccc(Cl)cc1	Compound metabolized
CCCCCCOC(=O)/N=C(/N)c1ccc(NCc2nc3cc(C(=O)N(CCC(=O)OCC)c4ccccn4)ccc3n2C)cc1.CS(=O)(=O)O [DABIGATRAN ETEXILATE MESYLATE]	Compound NOT metabolized
COc1ccc2c(c1OC)C(=O)O[C@@H]2[C@H]1c2c(cc3c(c2OC)OCO3)CCN1C	Compound metabolized
CS(=O)(=O)O.O.O.O.O=C1Cc2cc(CCN3CCN(c4nsc5ccccc45)CC3)c(Cl)cc2N1 [ZIPRASIDONE MESYLATE]	Compound NOT metabolized
COc1ccc2[nH]c([S+]([O-])Cc3ncc(C)c(OC)c3C)nc2n1 (centres undefined)	Compound metabolized
Cc1nc2n(c(=O)c1CCN1CCC(c3noc4cc(F)ccc34)CC1)CCCC2O (centres undefined)	Compound metabolized
COc1ccc(CN2CCNCC2)c(OC)c1OC.Cl.Cl [TRIMETAZIDINE DIHYDROCHLORIDE]	Compound metabolized
C[C@@H](CO)NC(=O)[C@@H]1C=C2c3cccc4[nH]cc(c34)C[C@H]2N(C)C1.O=C(O)/C=C\C(=O)O [ERGONOVINE MALEATE]	Compound metabolized
O=C1CN2Cc3c(ccc(Cl)c3Cl)N=C2N1 [ANAGRELIDE]	Compound NOT metabolized
CC(C)NCC(O)COc1ccc(COCCOC(C)C)cc1.CC(C)NCC(O)COc1ccc(COCCOC(C)C)cc1.O=C(O)/C=C/C(=O)O (centres undefined) [BISOPROLOL FUMARATE]	Compound NOT metabolized
O=C1[C@H](CC[C@H](O)c2ccc(F)cc2)[C@@H](c2ccc(O)cc2)N1c1ccc(F)cc1	Compound NOT metabolized

###

Assay: The drug is tested on Blautia luti strain: DSM14534 for biotransformation. The drug concentrations were measured before and after a 12-h incubation by liquid-chromatography-coupled mass spectrometry (LC–MS)
Assay type: ADME
Design: dose 2 uM, timepoint 0 vs 12 hours
Settings: 2 µM

COMPOUND	Bacterial Biotransformation
O=c1[nH]c2ccccc2n1CCCN1CCC(n2c(=O)[nH]c3cc(Cl)ccc32)CC1	Compound NOT metabolized
CC(=O)O[C@H]1C(=O)[C@@]2(C)[C@H]([C@H](OC(=O)c3ccccc3)[C@]3(O)C[C@H](OC(=O)[C@H](O)[C@@H](NC(=O)c4ccccc4)c4ccccc4)C(C)=C1C3(C)C)[C@]1(OC(C)=O)CO[C@@H]1C[C@@H]2O	Compound NOT metabolized
CCC(C)n1ncn(-c2ccc(N3CCN(c4ccc(OCC5COC(Cn6cncn6)(c6ccc(Cl)cc6Cl)O5)cc4)CC3)cc2)c1=O (centres undefined)	Compound NOT metabolized
CN(C)C(=O)Oc1cc(OC(=O)N(C)C)cc(C(O)CNC(C)(C)C)c1 (centres undefined)	Compound NOT metabolized

###

Details: bacteroides intestinalis, 12 h, 2 µM
READOUT LABEL: Bacterial Biotransformation

COMPOUND	READOUT LABEL	OBS VALUE
CCCc1nc(C(C)(C)O)c(C(=O)OCc2oc(=O)oc2C)n1Cc1ccc(-c2ccccc2-c2nnn[nH]2)cc1	Bacterial Biotransformation	Compound metabolized
CNC(=C[N+](=O)[O-])NCCSCc1csc(CN(C)C)n1	Bacterial Biotransformation	Compound metabolized
Cc1nc2n(c(=O)c1CCN1CCC(c3noc4cc(F)ccc34)CC1)CCCC2O (stereo not drawn)	Bacterial Biotransformation	Compound metabolized
O=C(Nc1ccccc1)OCC(CN1CCCCC1)OC(=O)Nc1ccccc1 (stereo not drawn)	Bacterial Biotransformation	Compound NOT metabolized
CC12CC3CC(C)(C1)CC(N)(C3)C2 [MEMANTINE]	Bacterial Biotransformation	Compound NOT metabolized
CCOC(=O)C1=C[C@]2(CC)CCCN3CCc4c(n1c1ccccc41)[C@@H]32	Bacterial Biotransformation	Compound NOT metabolized
N[C@@H](Cc1ccc(N(CCCl)CCCl)cc1)C(=O)O	Bacterial Biotransformation	Compound metabolized
CCN(CC)C(=O)C1(c2ccccc2)CC1CN (stereo not drawn)	Bacterial Biotransformation	Compound NOT metabolized
CN1CCC(=C2c3ccccc3CCc3cccnc32)CC1.O=C(O)/C=C\C(=O)O.O=C(O)/C=C\C(=O)O [AZATADINE MALEATE]	Bacterial Biotransformation	Compound NOT metabolized
COC1=C(OC)C(=O)C(CCCCCCCCCCO)=C(C)C1=O	Bacterial Biotransformation	Compound NOT metabolized
CC(C)(C)NC[C@H](O)COc1nsnc1N1CCOCC1.O=C(O)/C=C\C(=O)O [TIMOLOL MALEATE]	Bacterial Biotransformation	Compound NOT metabolized
CCc1oc2ccccc2c1C(=O)c1cc(Br)c(O)c(Br)c1	Bacterial Biotransformation	Compound NOT metabolized
CC(O)(CS(=O)(=O)c1ccc(F)cc1)C(=O)Nc1ccc(C#N)c(C(F)(F)F)c1 (stereo not drawn) [BICALUTAMIDE]	Bacterial Biotransformation	Compound NOT metabolized
CCCC(C)(COC(N)=O)COC(=O)NC(C)C (stereo not drawn)	Bacterial Biotransformation	Compound NOT metabolized
CCOc1ccccc1OCCN[C@H](C)Cc1ccc(OC)c(S(N)(=O)=O)c1.Cl [TAMSULOSIN HYDROCHLORIDE]	Bacterial Biotransformation	Compound NOT metabolized
C[C@@H]1CC[C@H]2[C@@H](C)C(=O)O[C@@H]3O[C@@]4(C)CC[C@@H]1[C@]32OO4	Bacterial Biotransformation	Compound metabolized
COc1cc2nc(N3CCN(C(=O)c4ccco4)CC3)nc(N)c2cc1OC	Bacterial Biotransformation	Compound NOT metabolized
O=C(O[C@H]1C[C@H]2CC[C@@H](C1)[N+]21CCCC1)C(O)(c1ccccc1)c1ccccc1.[Cl-] [TROSPIUM CHLORIDE]	Bacterial Biotransformation	Compound NOT metabolized
CCC(COC(=O)c1cc(OC)c(OC)c(OC)c1)(c1ccccc1)N(C)C.O=C(O)/C=C\C(=O)O (stereo not drawn)	Bacterial Biotransformation	Compound metabolized
CN1C(=O)CC(C)(c2ccccc2)C1=O (stereo not drawn) [METHSUXIMIDE]	Bacterial Biotransformation	Compound NOT metabolized
C[C@@H](CO)NC(=O)[C@@H]1C=C2c3cccc4[nH]cc(c34)C[C@H]2N(C)C1.O=C(O)/C=C\C(=O)O [ERGONOVINE MALEATE]	Bacterial Biotransformation	Compound metabolized
O=C(O)COCCN1CCN(C(c2ccccc2)c2ccc(Cl)cc2)CC1 (stereo not drawn)	Bacterial Biotransformation	Compound metabolized
COc1ccc([C@@H]2Sc3ccccc3N(CCN(C)C)C(=O)[C@@H]2OC(C)=O)cc1	Bacterial Biotransformation	Compound metabolized
CCN(CC)CCNC(=O)c1ccc(NC(C)=O)cc1 [ACECAINIDE]	Bacterial Biotransformation	Compound NOT metabolized
CCCCC1=NC2(CCCC2)C(=O)N1Cc1ccc(-c2ccccc2-c2nnn[nH]2)cc1	Bacterial Biotransformation	Compound metabolized
Cc1ccc(/C(=C\CN2CCCC2)c2ccccn2)cc1	Bacterial Biotransformation	Compound NOT metabolized
COCCCC/C(=N\OCCN)c1ccc(C(F)(F)F)cc1.O=C(O)/C=C\C(=O)O [FLUVOXAMINE MALEATE]	Bacterial Biotransformation	Compound NOT metabolized
OCCOCCN1CCN(C2=Nc3ccccc3Sc3ccccc32)CC1	Bacterial Biotransformation	Compound NOT metabolized
